target: APE1 (Homo sapiens); construct: made in house; experiment: Fluorogenic kinetic qHTS APE1 incision assay (primary screen and retest of cherrypicked samples); assay type: biochemical; conditions: control on every assay plate, average over screen; read-out: IC50 of intra-plate control titration;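 also: purified APE1 cleaving a fluorophore/dark-quencher labelled 17-mer duplex DNA bearing a tetrahydrofuran AP site, fluorescence rise followed kinetically over the first 2 min, inhibition normalized to controls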
measured_quantity: IC50 (nM)

[[record]]
compound = "O=C(O)c1cc[c]([Sb](=[O])([OH])[OH])cc1[N+](=O)[O-] [NSC-13755, reference compound]"
recorded_number = 35


---

molecular target: APE1 (Homo sapiens, UniProt P27695); construct: made in house; experiment: Fluorescence polarization (FP) displacement assay of APE1 binding to AP-DNA probe; conditions: read-out: FP IC50;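 also: TAMRA 5′-labeled duplex DNA with THF abasic site (5 nM) and APE1 (20 nM), Mg2+-free buffer, 15 min at room temperature, inhibition seen as lowered polarization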
Sequence (P27695 whole entry): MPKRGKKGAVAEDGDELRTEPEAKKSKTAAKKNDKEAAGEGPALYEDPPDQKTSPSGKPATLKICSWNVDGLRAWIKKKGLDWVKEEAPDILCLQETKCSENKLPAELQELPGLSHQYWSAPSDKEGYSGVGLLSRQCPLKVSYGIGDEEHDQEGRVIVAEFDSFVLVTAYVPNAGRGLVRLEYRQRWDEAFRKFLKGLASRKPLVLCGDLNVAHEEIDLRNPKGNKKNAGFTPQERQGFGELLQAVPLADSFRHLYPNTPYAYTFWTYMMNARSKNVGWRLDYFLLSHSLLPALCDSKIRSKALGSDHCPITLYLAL
pIC50: −log10 of the molar value.
measured_quantity: pIC50

[[record]]
compound = "O=C(COC(=O)c1cc2c(s1)CCC2)Nc1ccc(F)cc1"
measured_quantity = "pIC50"
op = "="
recorded_number = 4.90

[[record]]
compound = "O=C1CCCC(O)=C1N=Nc1ccc(C(=O)O)cc1"
measured_quantity = "pIC50"
op = "<"
recorded_number = 4.24

[[record]]
compound = "Cc1sc2ncnc(SCC(=O)Nc3ncccc3O)c2c1C"
measured_quantity = "pIC50"
op = "="
recorded_number = 4.69

[[record]]
compound = "O=C(/C=C/c1ccco1)NCc1ccco1"
measured_quantity = "pIC50"
op = "<"
recorded_number = 4.24

[[record]]
compound = "CCOC(=O)c1cc(-c2ccc(N3CCOCC3)cc2)nn1-c1ccccc1C(=O)O"
measured_quantity = "pIC50"
op = "="
recorded_number = 4.80

[[record]]
compound = "COc1ccc(NC(=O)COC(=O)c2cc3c(s2)CCC3)cc1"
measured_quantity = "pIC50"
op = "="
recorded_number = 4.44

[[record]]
compound = "CSCC[C@H](NS(=O)(=O)c1ccc(C(C)=O)cc1)c1nnc2ccccn12"
measured_quantity = "pIC50"
op = "<"
recorded_number = 4.24

[[record]]
compound = "CC(=O)Oc1cc(C(=O)OCC(=O)N2CCc3ccccc3C2)cc(OC(C)=O)c1OC(C)=O"
measured_quantity = "pIC50"
op = "<"
recorded_number = 4.24

[[record]]
compound = "O=S(=O)(Nc1ccccc1)c1cccc2nsnc12"
measured_quantity = "pIC50"
op = "="
recorded_number = 4.39

[[record]]
compound = "COc1cc2c(ccc3cc(OC)c(OC)c(O)c32)cc1O"
measured_quantity = "pIC50"
op = "="
recorded_number = 4.90

[[record]]
compound = "Cc1cccn2c(=O)c3cc(C(=O)NCc4ccco4)c(=N)n(C4CCCCC4)c3nc12"
measured_quantity = "pIC50"
op = "<"
recorded_number = 4.24

[[record]]
compound = "CC(=O)Nc1sc2c(c1-c1nc3ccccc3s1)CCN(C(C)C)C2"
measured_quantity = "pIC50"
op = "="
recorded_number = 5.60

[[record]]
compound = "O=C(O)c1cccc(-c2ccc(/C=c3/sc4nc5ccccc5n4c3=O)o2)c1"
measured_quantity = "pIC50"
op = "="
recorded_number = 5.10

[[record]]
compound = "Cc1cc(C)c2nc(-c3ccco3)cc(C(=O)O)c2c1"
measured_quantity = "pIC50"
op = "<"
recorded_number = 4.24

[[record]]
compound = "Cc1cccc(NC(=O)CNC(=O)c2cccc(-n3cccc3)c2)c1C"
measured_quantity = "pIC50"
op = "<"
recorded_number = 4.24

[[record]]
compound = "O=C(CSc1nnc(CNC(=O)c2c(F)cccc2F)o1)NCc1ccco1"
measured_quantity = "pIC50"
op = "="
recorded_number = 4.74

[[record]]
compound = "COc1cccc(NC(=O)CN(C)C(=O)c2cc(-c3ccco3)nc3ccccc23)c1"
measured_quantity = "pIC50"
op = "<"
recorded_number = 4.24

[[record]]
compound = "Cc1cc(/C=C2\\C(=O)NC(=O)N(Cc3ccccc3Cl)C2=O)c(C)n1-c1ccc(C(=O)O)cc1"
measured_quantity = "pIC50"
op = "="
recorded_number = 4.80

[[record]]
compound = "O=C1CCCC(O)=C1N=Nc1cccc(C(=O)O)c1"
measured_quantity = "pIC50"
op = "<"
recorded_number = 4.24

[[record]]
compound = "O=C1COc2ccc(C(=O)COC(=O)/C=C/c3ccc(Br)o3)cc2N1"
measured_quantity = "pIC50"
op = "<"
recorded_number = 4.24

[[record]]
compound = "CCN(CC(=O)Nc1c(F)cccc1F)C(=O)/C=C/c1ccc2ccccc2n1"
measured_quantity = "pIC50"
op = "<"
recorded_number = 4.24

[[record]]
compound = "CC(=O)Nc1ccc(S(=O)(=O)NCCC(=O)OCC(=O)N2CCN(C(=O)c3ccco3)CC2)cc1"
measured_quantity = "pIC50"
op = "="
recorded_number = 4.69

[[record]]
compound = "Cc1ccc(S(=O)(=O)Nc2csc(C)c2C(=O)O)cc1"
measured_quantity = "pIC50"
op = "<"
recorded_number = 4.24

[[record]]
compound = "c1ccc2c(NCCc3c[nH]c4ccccc34)c3ccccc3nc2c1"
measured_quantity = "pIC50"
op = "<"
recorded_number = 4.24

[[record]]
compound = "CN(CC(=O)Nc1c(Cl)cccc1Cl)C(=O)c1cccc(-n2cccc2)c1"
measured_quantity = "pIC50"
op = "="
recorded_number = 4.99

[[record]]
compound = "O=C(CSc1nc(-c2ccc(F)cc2)nc2c1Cc1ccccc1O2)Nc1ccc(C(=O)O)cc1"
measured_quantity = "pIC50"
op = "<"
recorded_number = 4.24

[[record]]
compound = "CN(C)C(=O)Nc1ccc(Cl)c(Cl)c1"
measured_quantity = "pIC50"
op = "<"
recorded_number = 4.24

[[record]]
compound = "COC(=O)c1cc(NC(=O)Cc2cccs2)cc(C(=O)OC)c1"
measured_quantity = "pIC50"
op = "<"
recorded_number = 4.24

[[record]]
compound = "O=c1oc2c(O)c(O)cc3c(=O)oc4c(O)c(O)cc1c4c23"
measured_quantity = "pIC50"
op = "="
recorded_number = 4.50

[[record]]
compound = "CCOc1ccc(NC(=O)CN(C)C(=O)C2COc3ccccc3O2)cc1OCC (centres unmarked)"
measured_quantity = "pIC50"
op = "<"
recorded_number = 4.24

[[record]]
compound = "O=C1NN(c2ccccc2)C(=O)/C1=C/c1ccc(-c2ccc(Cl)c(C(=O)O)c2)o1"
measured_quantity = "pIC50"
op = "="
recorded_number = 4.80

[[record]]
compound = "CCOC(=O)c1cc(-c2ccc(/C=C3/C(=O)N(c4ccc(C(=O)O)cc4)N=C3C)o2)ccc1Cl"
measured_quantity = "pIC50"
op = "<"
recorded_number = 4.24

[[record]]
compound = "Cc1ccc(C)c(NC(=O)CN(C)C(=O)c2cccc(-n3cccc3)c2)c1"
measured_quantity = "pIC50"
op = "="
recorded_number = 4.89

[[record]]
compound = "Nc1c(/C=C2/C=CC(=O)C(O)=C2)c(=O)nc2sc(CC(=O)N3CCCCC3)nn12"
measured_quantity = "pIC50"
op = "<"
recorded_number = 4.24

[[record]]
compound = "O=C(CSc1nc2sc3c(c2c(=O)n1-c1ccccc1)CCCC3)NN=Cc1ccccc1C(=O)O"
measured_quantity = "pIC50"
op = "<"
recorded_number = 4.24

